Assay: activity coefficient (dimensionless); of the first substance listed, at infinite dilution; xn = mol fraction of the nth substance listed
Settings: 318.15 K; Liquid; Chromatography; x1 = 0
PROPERTY: activity coefficient
The answer should be a number; do not append a unit.

What value of measured activity coefficient is listed for CC(C)O [propan-2-ol] + CCn1cc[n+](C)c1.CS(=O)(=O)[O-] ? 0.974

Look at this compound and give its reported activity coefficient. CCC1CCCCC1 [ethylcyclohexane] + CCn1cc[n+](C)c1.CS(=O)(=O)[O-] 344

Consider the compound shown here: C[N+](=O)[O-] [nitromethane] + CCn1cc[n+](C)c1.CS(=O)(=O)[O-] What is its recorded activity coefficient? 0.612

For the compound c1ccsc1 [thiophene] + CCn1cc[n+](C)c1.CS(=O)(=O)[O-] , what activity coefficient is on record? 2.04

Give the measured activity coefficient of C1CCCCC1 [cyclohexane] + CCn1cc[n+](C)c1.CS(=O)(=O)[O-] . 123

Which activity coefficient is listed for C1CCOC1 [tetrahydrofuran] + CCn1cc[n+](C)c1.CS(=O)(=O)[O-] ? 5.37

Which activity coefficient reading was recorded for the compound CO [methanol] + CCn1cc[n+](C)c1.CS(=O)(=O)[O-] ? 0.238

Request the reported activity coefficient associated with CCCO [propan-1-ol] + CCn1cc[n+](C)c1.CS(=O)(=O)[O-] 0.801

Look up activity coefficient for this compound: COC(C)=O [methyl ethanoate] + CCn1cc[n+](C)c1.CS(=O)(=O)[O-] 3.59

Which activity coefficient is listed for CCc1ccccc1 [ethylbenzene] + CCn1cc[n+](C)c1.CS(=O)(=O)[O-] ? 19.1

// activity coefficient lookup, key: ClC(Cl)(Cl)Cl [tetrachloromethane] + CCn1cc[n+](C)c1.CS(=O)(=O)[O-] 4.93

Which value of activity coefficient has been reported for CC(C)OC(C)C [diisopropyl ether] + CCn1cc[n+](C)c1.CS(=O)(=O)[O-] in the records? 127

I am curious: what activity coefficient value has been reported for CCCCCCC [heptane] + CCn1cc[n+](C)c1.CS(=O)(=O)[O-] ? 637

Requested field: activity coefficient. Item: CCOC(C)=O [ethyl acetate] + CCn1cc[n+](C)c1.CS(=O)(=O)[O-] 7.32

Quick one: activity coefficient of COC(=O)OC [dimethyl carbonate] + CCn1cc[n+](C)c1.CS(=O)(=O)[O-] ? 3.18

For ClC(Cl)Cl [trichloromethane] + CCn1cc[n+](C)c1.CS(=O)(=O)[O-] , what is its reported activity coefficient? 0.488

Reported activity coefficient, compound COCCOC [1,2-dimethoxyethane] + CCn1cc[n+](C)c1.CS(=O)(=O)[O-] : ____ 5.58

Given the entry c1ccccc1 [benzene] + CCn1cc[n+](C)c1.CS(=O)(=O)[O-] , report its measured activity coefficient. 4.51

Please give the measured activity coefficient for this compound: CCC(C)=O [butanone] + CCn1cc[n+](C)c1.CS(=O)(=O)[O-] 4.48

Reported activity coefficient for CC1CCCCC1 [methylcyclohexane] + CCn1cc[n+](C)c1.CS(=O)(=O)[O-] : what is it? 211

Report activity coefficient for Cc1cccc(C)c1 [1,3-dimethylbenzene] + CCn1cc[n+](C)c1.CS(=O)(=O)[O-] please. 20.8

---

What activity coefficient was measured for each of the following?
Assay: activity coefficient (dimensionless); of the first substance listed, at infinite dilution; xn = mol fraction of the nth substance listed
Settings: 353.15 K; Liquid; Chromatography; x1 = 0
Give the figure by itself; no unit, no explanation.

Returns the measured activity coefficient for the input compound. Input: ClC(Cl)Cl [trichloromethane] + CCn1cc[n+](C)c1.CS(=O)(=O)[O-] 0.694

Sample CCC1CCCCC1 [ethylcyclohexane] + CCn1cc[n+](C)c1.CS(=O)(=O)[O-] — what was its activity coefficient? 237

I am curious: what activity coefficient value has been reported for c1ccccc1 [benzene] + CCn1cc[n+](C)c1.CS(=O)(=O)[O-] ? 4.46

Look up activity coefficient: C[N+](=O)[O-] [nitromethane] + CCn1cc[n+](C)c1.CS(=O)(=O)[O-] 0.668

Param item = ClC(Cl)(Cl)Cl [tetrachloromethane] + CCn1cc[n+](C)c1.CS(=O)(=O)[O-] ; retrieve measured activity coefficient. 5.87

Endpoint output: activity coefficient of CCCCCCCC [octane] + CCn1cc[n+](C)c1.CS(=O)(=O)[O-] . Value? 676

Entry CCOC(C)=O [ethyl acetate] + CCn1cc[n+](C)c1.CS(=O)(=O)[O-] : reported activity coefficient = ? 7.12

Which value of activity coefficient has been reported for CC(C)OC(C)C [diisopropyl ether] + CCn1cc[n+](C)c1.CS(=O)(=O)[O-] in the records? 101

Using the record for COC(=O)OC [dimethyl carbonate] + CCn1cc[n+](C)c1.CS(=O)(=O)[O-] , report its activity coefficient. 3.14

Requested field: activity coefficient. Item: C1CCOC1 [tetrahydrofuran] + CCn1cc[n+](C)c1.CS(=O)(=O)[O-] 5.1

Value lookup for activity coefficient; key = FC(F)(F)C(Cl)Br (stereo unspecified) [1-bromo-1-chloro-2,2,2-trifluoroethane] + CCn1cc[n+](C)c1.CS(=O)(=O)[O-] 0.96

---

Experiment: activity coefficient (dimensionless); of the first substance listed, at infinite dilution; xn = mol fraction of the nth substance listed
Conditions: 333.15 K; Liquid; Chromatography; x1 = 0
Field: activity coefficient. Provide a value for each of the compounds that follow.
Number only, no unit.

Sample Cc1ccccc1 [toluene] + CCn1cc[n+](C)c1.CS(=O)(=O)[O-] — what was its activity coefficient? 9.23

Reported activity coefficient for CC(C)=O [acetone] + CCn1cc[n+](C)c1.CS(=O)(=O)[O-] : what is it? 2.47

Can you share its activity coefficient? I mean this compound: CO [methanol] + CCn1cc[n+](C)c1.CS(=O)(=O)[O-] 0.242

Query (compound): CCc1ccccc1 [ethylbenzene] + CCn1cc[n+](C)c1.CS(=O)(=O)[O-] ; field requested: activity coefficient 18.3

What activity coefficient value was documented for this compound, COC(C)(C)C [2-methoxy-2-methylpropane] + CCn1cc[n+](C)c1.CS(=O)(=O)[O-] ? 32.6

Endpoint output: activity coefficient of CCCO [propan-1-ol] + CCn1cc[n+](C)c1.CS(=O)(=O)[O-] . Value? 0.771

# lookup: activity coefficient of C1CCOC1 [tetrahydrofuran] + CCn1cc[n+](C)c1.CS(=O)(=O)[O-] 5.24

---

Assay: activity coefficient (dimensionless); of the first substance listed, at infinite dilution; xn = mol fraction of the nth substance listed
Details: 323.15 K; Liquid; Chromatography; x1 = 0
Consider the following molecules; for each one, report its activity coefficient.
The answer should be a number; do not append a unit.

# query: activity coefficient of entry C1CCOC1 [tetrahydrofuran] + CCn1cc[n+](C)c1.CS(=O)(=O)[O-] 5.33

Looking for the measured activity coefficient of ClC(Cl)(Cl)Cl [tetrachloromethane] + CCn1cc[n+](C)c1.CS(=O)(=O)[O-] , can you help? 5.08

Bench note: what activity coefficient did ClC(Cl)Cl [trichloromethane] + CCn1cc[n+](C)c1.CS(=O)(=O)[O-] show? 0.515

// activity coefficient lookup, key: CC#N [acetonitrile] + CCn1cc[n+](C)c1.CS(=O)(=O)[O-] 0.873

Item COCCOC [1,2-dimethoxyethane] + CCn1cc[n+](C)c1.CS(=O)(=O)[O-] has what recorded activity coefficient? 5.62

Given the entry COC(C)(C)C [2-methoxy-2-methylpropane] + CCn1cc[n+](C)c1.CS(=O)(=O)[O-] , report its measured activity coefficient. 33.8

---

Assay: activity coefficient (dimensionless); of the first substance listed, at infinite dilution; xn = mol fraction of the nth substance listed
Details: 333.15 K; Liquid; Chromatography; x1 = 0
Provide the recorded activity coefficient for the entries that follow.

Fill in: activity coefficient of CCC(C)=O [butanone] + CCn1cc[n+](C)c1.CS(=O)(=O)[O-] is ___ 4.48

Entry under review: COC(C)=O [methyl ethanoate] + CCn1cc[n+](C)c1.CS(=O)(=O)[O-] . Reported activity coefficient? 3.61

Would you kindly share the measured activity coefficient for c1ccccc1 [benzene] + CCn1cc[n+](C)c1.CS(=O)(=O)[O-] ? 4.48

# get_value(readout='activity coefficient', item= C=CCCCCCC [oct-1-ene] + CCn1cc[n+](C)c1.CS(=O)(=O)[O-] ) 325

Look up activity coefficient for this molecule: Cc1cccc(C)c1 [1,3-dimethylbenzene] + CCn1cc[n+](C)c1.CS(=O)(=O)[O-] 19.9

Fill blank: measured activity coefficient of the molecule CC1CCCCC1 [methylcyclohexane] + CCn1cc[n+](C)c1.CS(=O)(=O)[O-] is ____. 177

I'd like to know its activity coefficient. The molecule in question is ClC(Cl)Cl [trichloromethane] + CCn1cc[n+](C)c1.CS(=O)(=O)[O-] 0.572

Return reported activity coefficient; argument: FC(F)(F)C(Cl)Br (centres undefined) [1-bromo-1-chloro-2,2,2-trifluoroethane] + CCn1cc[n+](C)c1.CS(=O)(=O)[O-] 0.739

Reported activity coefficient for C1CCCCC1 [cyclohexane] + CCn1cc[n+](C)c1.CS(=O)(=O)[O-] : what is it? 103
